What MIC was measured for each of the following?
tested on: P. aeruginosa ATCC27853; experiment: MIC susceptibility testing, broth microdilution in CaMHB; type: cell-based, Pseudomonas aeruginosa; details: Table 4A, different batches of cation-adjusted Muller-Hinton broth
Structures can show the parent of a compound that is named as a salt. *1 amine or outer side, *2 acyl side, *3 side chain or, on linkers, in order; H or OH if unused. Where a SMILES comes first, the peptide text is derived from it. Bridges are numbered along the chain shown (N, C = ends). [ ]: non-standard residue; d: D form. The star is where a group is joined. ξ: configuration not given here. NMeGABA = CN(CCCC(=O)[*:2])[*:1]; Thr(3ξ) = CC(O)[C@H](N)C(=O)O; X5 = CC(C)[C@H](N)CCC(=O)*; Dab = NCC[C@H](N)C(=O)O; X1 = CCCCCCC(O)C(=O)*; GABA = NCCCC(=O)O
The reply should contain only the number, in micrograms/mL.

Prompt: // fetch MIC; item: CC(C)C[C@@H]1NC(=O)[C@@H](Cc2ccccc2)NC(=O)[C@H](CCN)NC(=O)[C@@H](NC(=O)[C@H](CCN)NC(=O)[C@@H](NC(=O)CCCN)[C@@H](C)O)CCNC(=O)[C@H]([C@@H](C)O)NC(=O)[C@H](CCN)NC(=O)[C@H](CCN)NC1=O [Example 6, Sulphate Salt] (H-[GABA]T[Dab][Dab][Dab][dF]L[Dab][Dab]T; lactam 4-C) ; system: P. aeruginosa ATCC27853
Response: 0.25

Prompt: # return MIC for CCCCCCC(O)C(=O)N[C@H](C(=O)N[C@@H](CCN)C(=O)N[C@H]1CCNC(=O)[C@H](C(C)O)NC(=O)[C@H](CCN)NC(=O)[C@H](CCN)NC(=O)[C@H](CC(C)C)NC(=O)[C@@H](Cc2ccccc2)NC(=O)[C@H](CCN)NC1=O)C(C)O (stereo partly shown) [Example 2, Sulphate Salt] (X1-[Thr(3ξ)][Dab][Dab][Dab][dF]L[Dab][Dab][Thr(3ξ)]; lactam 3-C) , test system: P. aeruginosa ATCC27853
Response: 0.5

Prompt: Check P. aeruginosa ATCC27853 data and give MIC for CNCCCC(=O)N[C@H](C(=O)N[C@@H](CCN)C(=O)N[C@H]1CCNC(=O)[C@H](C(C)O)NC(=O)[C@H](CCN)NC(=O)[C@H](CCN)NC(=O)[C@H](CC(C)C)NC(=O)[C@@H](Cc2ccccc2)NC(=O)[C@H](CCN)NC1=O)C(C)O (stereo partly shown) [Example 23] (NMeGABA-[Thr(3ξ)][Dab][Dab][Dab][dF]L[Dab][Dab][Thr(3ξ)]; lactam 3-C) .
Response: 0.25

Prompt: Given CC(C)C[C@@H]1NC(=O)[C@@H](Cc2ccccc2)NC(=O)[C@H](CCN)NC(=O)[C@@H](NC(=O)[C@H](CCN)NC(=O)[C@@H](NC(=O)CC[C@@H](N)C(C)C)C(C)O)CCNC(=O)[C@H](C(C)O)NC(=O)[C@H](CCN)NC(=O)[C@H](CCN)NC1=O (stereo partly shown) [Example 29] (X5-[Thr(3ξ)][Dab][Dab][Dab][dF]L[Dab][Dab][Thr(3ξ)]; lactam 3-C) , report its MIC on P. aeruginosa ATCC27853.
Response: 0.125
